target: T1, mfNPR1-mFc:hANP complex (monkey; human, UniProt P01160 124-151); assay: SPR, mAb captured, 25C
T1 construct: also called monkey NPR1 complexed to ANP
measuredProperty: kon
Write the numeric value and append its unit.

1. mAb25508 (antibody, human IgG4, V domains shown) VH: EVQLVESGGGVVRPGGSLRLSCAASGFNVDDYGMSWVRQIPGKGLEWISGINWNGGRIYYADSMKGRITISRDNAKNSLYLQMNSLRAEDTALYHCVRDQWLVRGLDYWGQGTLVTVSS VL: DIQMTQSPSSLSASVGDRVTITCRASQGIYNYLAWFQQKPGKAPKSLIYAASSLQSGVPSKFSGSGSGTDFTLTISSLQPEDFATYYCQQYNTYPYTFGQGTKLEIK = 314000 M⁻¹ s⁻¹

Exam item: Data request, read-out kon, for mAb22033 (antibody, human IgG4, V domains shown) VH: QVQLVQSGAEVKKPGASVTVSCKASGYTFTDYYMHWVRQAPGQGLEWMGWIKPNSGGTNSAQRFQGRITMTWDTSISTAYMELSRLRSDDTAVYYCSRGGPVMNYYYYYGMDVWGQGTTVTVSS VL: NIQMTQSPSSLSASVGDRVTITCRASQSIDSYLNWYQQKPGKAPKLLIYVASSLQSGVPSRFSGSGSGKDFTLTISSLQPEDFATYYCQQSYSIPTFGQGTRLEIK
Marked response: 65800 M⁻¹ s⁻¹

Data credit: patent US20240309103A1
